This collection of values is drawn from patent US6451854B1.

- testedOn: GABAA receptors
- protocolDescription: inhibition of [35S]-TBPS binding to rat whole brain membranes
- particulars: concentration required to inhibit 50% of [35S]-TBPS binding
metric: pIC50
Please keep in mind that pIC50 is minus log10 of the molar concentration; only the number is needed.

Query: Consider the compound "CCOCCN(CCOCC)[C@@H](CC)C(=O)Oc1c(OC)cccc1OC" tested on GABAA receptors; state its pIC50.
Result: 4.96

Query: Recall the reported pIC50 of COc1cccc(OC)c1OC(=O)C(C)N(C)CCc1ccccc1 (centres unmarked) when tested on GABAA receptors.
Result: 4.23

Query: Check GABAA receptors data and give pIC50 for CCC(C(=O)Oc1c(OC)cc(C)cc1OC)N(CCOC)CCOC (racemic) .
Result: 4.74

Query: Tell me its pIC50 on GABAA receptors: "CCOCCN(CCOCC)[C@H](CC)C(=O)Oc1c(OC)cccc1OC"
Result: 4.74

Query: # assay system GABAA receptors: give pIC50 of CCC(C(=O)Oc1c(OC)cccc1OC)N(CCOC)CCOC (racemic)
Result: 5.00

Query: Tell me pIC50 of "CC[C@@H](C(=O)Oc1c(OC)cc(C)cc1OC)N(CCOC)CCOC" when tested on GABAA receptors.
Result: 4.85

Query: State measured pIC50 of the compound CCCC(C(=O)Oc1c(OC)cccc1OC)N(CCOC)CCOC (racemic) with GABAA receptors.
Result: 5.38
